# System: BDF1 mice, P388 leukemia ip, median survival T/C
# assay-details: NCI In Vivo Anticancer Drug Screen. Data for tumor model P388 Leukemia (intraperitoneal) in B6D2F1 (BDF1) mice
# settings: endpoint: median survival time; dose: 50.0 mg/kg/injection; schedule: Q04DX003 (ip); vehicle: water; higher = longer survival
Inconclusive results and toxic doses are left out.
Give measured T/C for each item. Keep answers brief.

Value sought: T/C, system BDF1 mice, P388 leukemia ip, median survival T/C, item COc1ccc(C2=CC(c3ccc(OC)c(OC)c3)c3c(c4ccccc4oc3=O)O2)cc1OC (stereo not drawn) . Result: 94 % of control

Noted T/C for O=C(CCNC(=O)OCc1ccccc1)NC(CSCc1ccccc1)C(=O)O (stereo not drawn) , tested on BDF1 mice, P388 leukemia ip, median survival T/C: 114 % of control

Summary: CCOC(=O)/C(N=O)=C(\O)c1ccc2ccccc2n1 , BDF1 mice, P388 leukemia ip, median survival T/C, T/C = 120 % of control

Tested on BDF1 mice, P388 leukemia ip, median survival T/C: c1ccc(CN(CCNc2ccccc2)c2ccccc2)cc1 . Observed T/C: 100 % of control

Tested system BDF1 mice, P388 leukemia ip, median survival T/C; T/C recorded for COc1ccc(C2C=C(c3ccc4c(c3)OCO4)Oc3c2c(=O)oc2ccccc32)cc1OC (stereo not drawn) was 101 % of control

The value of T/C recorded for O=C(O)c1c[nH]c2nccnc12 when tested on BDF1 mice, P388 leukemia ip, median survival T/C reads 99 % of control

Bench note, BDF1 mice, P388 leukemia ip, median survival T/C: CN(C(N)=O)c1c(O)nc(N)[nH]c1=O , T/C reads 100 % of control

# lookup: COc1ccc(/C=C/C(=O)c2ccc(OC)c(OCc3ccccc3)c2)cc1OC on BDF1 mice, P388 leukemia ip, median survival T/C, T/C = 100 % of control

---

# System: BDF1 mice, P388 leukemia ip, median survival T/C
# assay-details: NCI In Vivo Anticancer Drug Screen. Data for tumor model P388 Leukemia (intraperitoneal) in B6D2F1 (BDF1) mice
# settings: endpoint: median survival time; dose: 100.0 mg/kg/injection; schedule: Q01DX009 (ip); vehicle: saline with Tween-80
Inconclusive results and toxic doses are left out. How the source made its calls: active means survival T/C of 150% or more; inactive means T/C below 125% in these data.
Allowed answers: true = active, false = inactive

Hey, what did the test say about NC(N)=Nc1cccc(C(F)(F)F)c1 ?
false

For this compound, state the assay outcome: CC1(c2cccs2)C(=O)NC(=O)N1C(=O)CCl (stereo not drawn)
false

How was ClCCOCCCl classified in this test?
false

What classification did N#CCCC(C#N)(CCC#N)c1ccc([N+](=O)[O-])cc1 end up with in this test?
false

Recorded call for O=C(NC(=O)c1c(F)cccc1F)Nc1ncc(Br)cc1Br ?
false

I'd appreciate the recorded outcome for Cc1ccc(C(C#N)Nc2ccccc2)cc1 (stereo not drawn) from this test.
false

Per the records of this test, what outcome belongs to COc1cccc2c1N=C1CCCC3CN(C(C)=O)CCC123 (stereo not drawn) ?
false

Returns: the outcome recorded for CN(C)c1ccc(-c2c3ccccc3nc3ccccc23)cc1 in this assay.
false

Write down the call the test reported for this compound. Item: O=C(/C=C/c1ccc(F)cc1)c1ccc(Cl)cc1
false

Per the assay record, what outcome was assigned to C=CN1C(=O)NC(C)(CC(C)C)C1=O (stereo not drawn) ?
false

Give the logged outcome of this assay for the following compound: CCSc1ncnc2c1ncn2CN1CCOCC1
true

State the result this test recorded for CC(=O)OC1CCC2(C)CCCC(O)C2(O)C1 (stereo not drawn) .
false

Call for entry CC(C)CNC(=O)C12CC3CC(CC(C3)C1)C2 :
false

The values you see were collected from PubChem BioAssay AID328.
